Source: the supplement of paper PMC10724198

tested on: Saccharomyces cerevisiae; assay: protein stability index of tFT-peptide fusion (C-terminal peptide) (PSI (0-1 scale)); higher = more stable (slower turnover); conditions: genetic background: wild type; temperature: 30 C
Below, each entry is listed alongside its reported protein stability index.
reported_metric: protein stability index

1. KSSAGAGQCPLS = 0.712
2. HRKVCARHNWEE = 0.673
3. HGPGGFRAGTGE = 0.724
4. FGAGVWVGRVGG = 0.649
5. ILSCLLRSSFQC = 0.606
6. DGGVGRALEHGE = 0.652
7. PFGRETCLTSVP = 0.648
8. KIKKNKKKKRIN = 0.658
9. EATIVGLSYRTL = 0.617

###

test system: Saccharomyces cerevisiae; assay: protein stability index of tFT-peptide fusion (C-terminal peptide) (PSI (0-1 scale)); higher = more stable (slower turnover); settings: genetic background: wild type; temperature: 30 C
Label y when protein stability index is at or above 0.7; otherwise label n.

1) PRRLFFFFFLSG = n
2) GFLGVDLVYVVH = n
3) PPPPPPPLRFIF = n
4) EVRWIGLPMCTS = n
5) SHPAPPSPPPSP = n
6) GHGFPSLPLILS = n
7) SGVVLVRCEGRR = y
8) GEARVGGRWWSK = y
9) GHSNRDCFGIKC = n
10) SRYVSGGRKRKV = n
11) PPPLSQSPPSRR = n
12) PIKIYGYLTTVV = n

###

Recorded protein stability index by entry
test system: Saccharomyces cerevisiae; assay: protein stability index of tFT-peptide fusion (C-terminal peptide) (PSI (0-1 scale)); higher = more stable (slower turnover); conditions: genetic background: wild type; temperature: 30 C
reported_metric: protein stability index

1) ATAREWTKKYAV [UBC4 C-terminal 12 aa] = 0.712
2) EQNLEALAKSFF [BEM4 C-terminal 12 aa] = 0.697
3) RRTSSISTYLIL [YBL107W-A C-terminal 12 aa] = 0.662
4) EGFIAKVMCCLD [RFC5 C-terminal 12 aa] = 0.599
5) DATSTLSSQPLD [MSP1 C-terminal 12 aa] = 0.695
6) AYSLQEGSVVAI [SIF2 C-terminal 12 aa] = 0.696
7) IRSLPLPFPHMD [MIG1 C-terminal 12 aa] = 0.757
8) YNSELVATKDIQ [PNT1 C-terminal 12 aa] = 0.724
9) AVIGVYGEGQFI [ATG33 C-terminal 12 aa] = 0.693
10) KYILAWLRKVLL [YFL012W-A C-terminal 12 aa] = 0.456
11) LSSSDDNYGSLA [SNA2 C-terminal 12 aa] = 0.669
12) QIVNSTPVFTWC [LSB6 C-terminal 12 aa] = 0.652
13) YLEAFQWLSQYI [SAR1 C-terminal 12 aa] = 0.763
14) QDGIKEAASALA [INO80 C-terminal 12 aa] = 0.665
15) LFVEETNDIGYK [TRE2 C-terminal 12 aa] = 0.691
16) NISNGSSTQDMK [HPR1 C-terminal 12 aa] = 0.704
17) LCKEELKYQAIQ [YMR099C C-terminal 12 aa] = 0.665
18) DNLKYSLDCDFS [BGL2 C-terminal 12 aa] = 0.666
19) ATPQKRTGPARG [YER088C-A C-terminal 12 aa] = 0.66
20) LGDAYVSSDEEF [YEF3 C-terminal 12 aa] = 0.677
21) YAVSELEGPMLD [CSC1 C-terminal 12 aa] = 0.648
22) LGGLLTVLIWFL [KRE1 C-terminal 12 aa] = 0.332
23) QFWKNTPKVEQK [HOC1 C-terminal 12 aa] = 0.695
24) IYENDPNTKKNN [ERG3 C-terminal 12 aa] = 0.72
